test: Pharmacokinetic study of AWRK6 in rats after intraperitoneal or intravenous injection, plasma LC-MS/MS; format: in vivo, rat; conditions: rat, ip, 2.35 mg/kg; male Sprague Dawley rats, single i.p. 2.350 mg/kg, plasma, LC-MS/MS, mean ± SD, n = 6
No end group written: not given here.
assay-metric: AUC(0-inf) (µg·h/mL)

1) SWVGKHGKKFGLKKHKKH-NH2 (C-terminus assumed) [AWRK6]    0.851

----------
test: Pharmacokinetic study of AWRK6 in rats after intraperitoneal or intravenous injection, plasma LC-MS/MS; assay type: in vivo, rat; settings: rat, plasma, ip, 4.7 mg/kg; male Sprague Dawley rats, i.p. 4.700 mg/kg versus i.v. 4.700 mg/kg, from AUC; read-out: F (absolute bioavailability)
No end group written: not given here.
assay-metric: bioavailability (%)

1. SWVGKHGKKFGLKKHKKH-NH2 (C-terminus assumed) [AWRK6]    52.5

----------
assay: Pharmacokinetic study of AWRK6 in rats after intraperitoneal or intravenous injection, plasma LC-MS/MS; format: in vivo, rat; details: rat, ip, 4.7 mg/kg; male Sprague Dawley rats, single i.p. 4.700 mg/kg, plasma, LC-MS/MS, mean ± SD, n = 6; read-out: CLz/F (converted)
No end group written: not given here.
assay-metric: CL/F

1. SWVGKHGKKFGLKKHKKH-NH2 (C-terminus assumed) [AWRK6]    50.6 mL/min/kg

----------
assay: Pharmacokinetic study of AWRK6 in rats after intraperitoneal or intravenous injection, plasma LC-MS/MS; format: in vivo, rat; details: rat, ip, 4.7 mg/kg; male Sprague Dawley rats, single i.p. 4.700 mg/kg, plasma, LC-MS/MS, mean ± SD, n = 6; read-out: t1/2z (converted)
No end group written: not given here.
assay-metric: half-life

1) SWVGKHGKKFGLKKHKKH-NH2 (C-terminus assumed) [AWRK6]    2.94 h

----------
Test: Pharmacokinetic study of AWRK6 in rats after intraperitoneal or intravenous injection, plasma LC-MS/MS
Format: in vivo, rat
Settings: rat, iv, 4.7 mg/kg; male Sprague Dawley rats, single i.v. 4.700 mg/kg (tail vein), plasma, LC-MS/MS, mean ± SD, n = 6; read-out: MRT(0–t)
Method: The samples were analyzed on a LC-MS/MS system consisting of an Agilent 1290 Infinity II UHPLC System coupled with an Agilent 6460 Triple Quadrupole Mass Spectrometer with an electrospray ionisation source (ESI). […] SPF-grade male Sprague Dawley rats (280–320 g, 8 weeks old) were purchased from Liaoning Changsheng Biotechology (Liaoning, China). […] The obtained data were analyzed using DAS 2.0 software (Anhui Provincial Center for Drug Clinical Evaluation). […]
No end group written: not given here.
assay-metric: MRT (h)

1) SWVGKHGKKFGLKKHKKH-NH2 (C-terminus assumed) [AWRK6]    1.73

----------
test: Pharmacokinetic study of AWRK6 in rats after intraperitoneal or intravenous injection, plasma LC-MS/MS; format: in vivo, rat; conditions: rat, iv, 4.7 mg/kg; male Sprague Dawley rats, single i.v. 4.700 mg/kg (tail vein), plasma, LC-MS/MS, mean ± SD, n = 6
No end group written: not given here.
assay-metric: Cmax

1. SWVGKHGKKFGLKKHKKH-NH2 (C-terminus assumed) [AWRK6]    2130 ng/mL

----------
test: Pharmacokinetic study of AWRK6 in rats after intraperitoneal or intravenous injection, plasma LC-MS/MS; assay type: in vivo, rat; conditions: rat, ip, 2.35 mg/kg; male Sprague Dawley rats, single i.p. 2.350 mg/kg, plasma, LC-MS/MS, mean ± SD, n = 6; read-out: MRT(0–t)
No end group written: not given here.
assay-metric: MRT (h)

1) SWVGKHGKKFGLKKHKKH-NH2 (C-terminus assumed) [AWRK6]    2.26
